Hey, just so you know, these numbers are from PubChem BioAssay AID1919001.

Measured viability, T/C of individual entries
- Tested on: 699152-130-R-J1-PDC complex spheroid growth
- Procedure text: Anticancer human tumor 699152-130-R-J1-PDC patient-derived pancreatic carcinoma cell line growth inhibition [AhR]
- Test context: second compound 0.1 µM; first compound 0.0316 µM; stronger effect = lower value

{"columns": ["Compound", "viability, T/C / %"],
 "data": [
  ["Cn1ncnc1C1c2n[nH]c(=O)c3cc(F)cc(c23)NC1c1ccc(F)cc1 (centres undefined) + Cc1ccccc1N=Nc1ccc(NC(=O)c2ccnn2C)c(C)c1", 99.2],
  ["Nc1ccccc1NC(=O)c1ccc(CNC(=O)OCc2cccnc2)cc1 + CC(CO)NC(=O)c1cc(-c2ccc(Cl)cc2)nn(-c2cnn(C)c2)c1=O", 98.3],
  ["COc1cc(Nc2ncc3c(n2)-c2ccc(Cl)cc2C(c2c(F)cccc2OC)=NC3)ccc1C(=O)O + CC(CO)NC(=O)c1cc(-c2ccc(Cl)cc2)nn(-c2cnn(C)c2)c1=O", 92.5],
  ["Nc1ncn(C2CC(O)C(CO)O2)c(=O)n1 (centres undefined) + Cc1cncc(-c2nc(NCCc3c[nH]c4ccccc34)c3ncn(C(C)C)c3n2)c1", 90.4]
]}

---

- System: 699152-130-R-J1-PDC complex spheroid growth
- Procedure text: Anticancer human tumor 699152-130-R-J1-PDC cell line growth inhibition [AhR];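 further: compound exposure lasted 7 days after spheroids had grown for 3 days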
- Test context: curve of first compound; second compound 3.16 µM
Measured IC50 of individual entries
Endpoint label: IC50 (nM)

{"columns": ["Compound", "Prefix operator", "Reported result"],
 "data": [
  ["Nc1ccccc1NC(=O)c1ccc(CNC(=O)OCc2cccnc2)cc1 + Cc1ccccc1N=Nc1ccc(NC(=O)c2ccnn2C)c(C)c1", "=", 8030],
  ["O=C(C=Cc1cccc(S(=O)(=O)Nc2ccccc2)c1)NO + Cc1ccccc1N=Nc1ccc(NC(=O)c2ccnn2C)c(C)c1", ">", 10000],
  ["COc1cccc2c1C(=O)c1c(O)c3c(c(O)c1C2=O)CC(O)(C(=O)CO)CC3OC1CC(N)C(O)C(C)O1 (centres undefined) + Cc1ccccc1N=Nc1ccc(NC(=O)c2ccnn2C)c(C)c1", "=", 154],
  ["NS(=O)(=O)OCC1CC(n2ccc3c(NC4CCc5ccccc54)ncnc32)CC1O (centres undefined) + Cc1cncc(-c2nc(NCCc3c[nH]c4ccccc34)c3ncn(C(C)C)c3n2)c1", "=", 512]
]}

---

- System: 699152-130-R-J1-PDC complex spheroid growth
- Procedure text: Anticancer human tumor 699152-130-R-J1-PDC cell line growth inhibition [AhR];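 further: compound exposure lasted 7 days after spheroids had grown for 3 days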
- Test context: second compound 1 µM; first compound 0.03 µM; stronger effect = lower value
Measured viability, T/C of individual entries
Endpoint label: viability, T/C

{"columns": ["Compound", "Reported result"],
 "data": [
  ["CC(C)CC(NC(=O)C(Cc1ccccc1)NC(=O)c1cnccn1)B(O)O (stereo not drawn) + CC(CO)NC(=O)c1cc(-c2ccc(Cl)cc2)nn(-c2cnn(C)c2)c1=O", "3.08%"],
  ["O=C(C=Cn1cnc(-c2cc(C(F)(F)F)cc(C(F)(F)F)c2)n1)NNc1cnccn1 + CC(CO)NC(=O)c1cc(-c2ccc(Cl)cc2)nn(-c2cnn(C)c2)c1=O", "83.9%"],
  ["CCc1c2c(nc3ccc(O)cc13)-c1cc3c(c(=O)n1C2)COC(=O)[C@]3(O)CC + Cc1cncc(-c2nc(NCCc3c[nH]c4ccccc34)c3ncn(C(C)C)c3n2)c1", "58.8%"]
]}

---

- Test system: 699152-130-R-J1-PDC complex spheroid growth
- Procedure text: Anticancer human tumor 699152-130-R-J1-PDC cell line growth inhibition [AhR];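 further: compound exposure lasted 7 days after spheroids had grown for 3 days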
- Test context: second compound 0.1 µM; first compound 0.3 µM; stronger effect = lower value

{"columns": ["Compound", "viability, T/C (%)"],
 "data": [
  ["Nc1ncn(C2CC(O)C(CO)S2)c(=O)n1 (centres undefined) + CC(CO)NC(=O)c1cc(-c2ccc(Cl)cc2)nn(-c2cnn(C)c2)c1=O", 94.2],
  ["O=C(C=Cn1cnc(-c2cc(C(F)(F)F)cc(C(F)(F)F)c2)n1)NNc1cnccn1 + Cc1cncc(-c2nc(NCCc3c[nH]c4ccccc34)c3ncn(C(C)C)c3n2)c1", 81.4],
  ["Nc1ncn(C2CC(O)C(CO)S2)c(=O)n1 (centres undefined) + Cc1ccccc1N=Nc1ccc(NC(=O)c2ccnn2C)c(C)c1", 102],
  ["Nc1ncn(C2CC(O)C(CO)S2)c(=O)n1 (centres undefined) + Cc1cncc(-c2nc(NCCc3c[nH]c4ccccc34)c3ncn(C(C)C)c3n2)c1", 91.4]
]}

---

- Tested on: 699152-130-R-J1-PDC complex spheroid growth
- Procedure text: Anticancer human tumor 699152-130-R-J1-PDC cell line growth inhibition [AhR];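 further: compound exposure lasted 7 days after spheroids had grown for 3 days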
- Test context: second compound 3.16 µM; first compound 1 µM; stronger effect = lower value
Measured viability, T/C of individual entries

{"columns": ["Molecule", "viability, T/C"],
 "data": [
  ["COc1cc(C2c3cc4c(cc3C(OC3OC5COC(C)OC5C(O)C3O)C3COC(=O)C23)OCO4)cc(OC)c1O (stereo not drawn) + Cc1cncc(-c2nc(NCCc3c[nH]c4ccccc34)c3ncn(C(C)C)c3n2)c1", "60.6%"],
  ["Nc1ncn(C2CC(O)C(CO)O2)c(=O)n1 (stereo not drawn) + Cc1ccccc1N=Nc1ccc(NC(=O)c2ccnn2C)c(C)c1", "86.4%"],
  ["O=C(c1cc(Cc2n[nH]c(=O)c3ccccc23)ccc1F)N1CCN(C(=O)C2CC2)CC1 + Cc1ccccc1N=Nc1ccc(NC(=O)c2ccnn2C)c(C)c1", "94.1%"]
]}

---

- Test system: 699152-130-R-J1-PDC complex spheroid growth
- Procedure text: Anticancer human tumor 699152-130-R-J1-PDC cell line growth inhibition [AhR];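 further: compound exposure lasted 7 days after spheroids had grown for 3 days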
- Test context: second compound 10 µM; first compound 3.16 µM; stronger effect = lower value
Measured viability, T/C of individual entries

{"columns": ["Compound", "Tested on", "Unit descriptor", "viability, T/C"],
 "data": [
  ["COc1cc(C2c3cc4c(cc3C(OC3OC5COC(C)OC5C(O)C3O)C3COC(=O)C23)OCO4)cc(OC)c1O (stereo not drawn) + Cc1cncc(-c2nc(NCCc3c[nH]c4ccccc34)c3ncn(C(C)C)c3n2)c1", "699152-130-R-J1-PDC complex spheroid growth", "%", 1.07],
  ["O=C(C=Cc1cccc(S(=O)(=O)Nc2ccccc2)c1)NO + Cc1cncc(-c2nc(NCCc3c[nH]c4ccccc34)c3ncn(C(C)C)c3n2)c1", "699152-130-R-J1-PDC complex spheroid growth", "%", 17],
  ["Nc1ccn(C2OC(CO)C(O)C2(F)F)c(=O)n1 (stereo not drawn) + CC(CO)NC(=O)c1cc(-c2ccc(Cl)cc2)nn(-c2cnn(C)c2)c1=O", "699152-130-R-J1-PDC complex spheroid growth", "%", 53.9],
  ["COc1cccc2c1C(=O)c1c(O)c3c(c(O)c1C2=O)CC(O)(C(=O)CO)CC3OC1CC(N)C(O)C(C)O1 (stereo not drawn) + CC(CO)NC(=O)c1cc(-c2ccc(Cl)cc2)nn(-c2cnn(C)c2)c1=O", "699152-130-R-J1-PDC complex spheroid growth", "%", 5.62],
  ["O=C(c1cc(Cc2n[nH]c(=O)c3ccccc23)ccc1F)N1CCN(C(=O)C2CC2)CC1 + Cc1ccccc1N=Nc1ccc(NC(=O)c2ccnn2C)c(C)c1", "699152-130-R-J1-PDC complex spheroid growth", "%", 94],
  ["CC(C)c1c(-c2ccccc2)nc2c(C#N)c[nH]n2c1=O + Cc1ccccc1N=Nc1ccc(NC(=O)c2ccnn2C)c(C)c1", "699152-130-R-J1-PDC complex spheroid growth", "%", 106],
  ["CC(C)c1c(-c2ccccc2)nc2c(C#N)c[nH]n2c1=O + CC(CO)NC(=O)c1cc(-c2ccc(Cl)cc2)nn(-c2cnn(C)c2)c1=O", "699152-130-R-J1-PDC complex spheroid growth", "%", 85],
  ["O=C(C=Cc1cccc(S(=O)(=O)Nc2ccccc2)c1)NO + CC(CO)NC(=O)c1cc(-c2ccc(Cl)cc2)nn(-c2cnn(C)c2)c1=O", "699152-130-R-J1-PDC complex spheroid growth", "%", 90.5],
  ["COc1cccc2c1C(=O)c1c(O)c3c(c(O)c1C2=O)CC(O)(C(=O)CO)CC3OC1CC(N)C(O)C(C)O1 (stereo not drawn) + Cc1cncc(-c2nc(NCCc3c[nH]c4ccccc34)c3ncn(C(C)C)c3n2)c1", "699152-130-R-J1-PDC complex spheroid growth", "%", 5.06],
  ["COc1cc(C2c3cc4c(cc3C(OC3OC5COC(C)OC5C(O)C3O)C3COC(=O)C23)OCO4)cc(OC)c1O (stereo not drawn) + Cc1ccccc1N=Nc1ccc(NC(=O)c2ccnn2C)c(C)c1", "699152-130-R-J1-PDC complex spheroid growth", "%", 65.1],
  ["NS(=O)(=O)OCC1CC(n2ccc3c(NC4CCc5ccccc54)ncnc32)CC1O (stereo not drawn) + CC(CO)NC(=O)c1cc(-c2ccc(Cl)cc2)nn(-c2cnn(C)c2)c1=O", "699152-130-R-J1-PDC complex spheroid growth", "%", 27.1],
  ["Nc1ccccc1NC(=O)c1ccc(CNC(=O)OCc2cccnc2)cc1 + Cc1ccccc1N=Nc1ccc(NC(=O)c2ccnn2C)c(C)c1", "699152-130-R-J1-PDC complex spheroid growth", "%", 91.8],
  ["Nc1ccn(C2OC(CO)C(O)C2(F)F)c(=O)n1 (stereo not drawn) + Cc1ccccc1N=Nc1ccc(NC(=O)c2ccnn2C)c(C)c1", "699152-130-R-J1-PDC complex spheroid growth", "%", 48.5],
  ["O=C(c1cc(Cc2n[nH]c(=O)c3ccccc23)ccc1F)N1CCN(C(=O)C2CC2)CC1 + CC(CO)NC(=O)c1cc(-c2ccc(Cl)cc2)nn(-c2cnn(C)c2)c1=O", "699152-130-R-J1-PDC complex spheroid growth", "%", 79.3],
  ["COc1ccc([C@@H](O)c2cc(-c3ncnc4cc(N5CCOCC5)ccc34)c(F)cc2Cl)nn1 + Cc1ccccc1N=Nc1ccc(NC(=O)c2ccnn2C)c(C)c1", "699152-130-R-J1-PDC complex spheroid growth", "%", 61],
  ["COc1cc(Nc2ncc3c(n2)-c2ccc(Cl)cc2C(c2c(F)cccc2OC)=NC3)ccc1C(=O)O + CC(CO)NC(=O)c1cc(-c2ccc(Cl)cc2)nn(-c2cnn(C)c2)c1=O", "699152-130-R-J1-PDC complex spheroid growth", "%", 69.7],
  ["CC1(C)CCC(CN2CCN(c3ccc(C(=O)NS(=O)(=O)c4ccc(NCC5CCOCC5)c([N+](=O)[O-])c4)c(Oc4cnc5[nH]ccc5c4)c3)CC2)=C(c2ccc(Cl)cc2)C1 + CC(CO)NC(=O)c1cc(-c2ccc(Cl)cc2)nn(-c2cnn(C)c2)c1=O", "699152-130-R-J1-PDC complex spheroid growth", "%", 84.4],
  ["COc1cc(Nc2ncc3c(n2)-c2ccc(Cl)cc2C(c2c(F)cccc2OC)=NC3)ccc1C(=O)O + Cc1cncc(-c2nc(NCCc3c[nH]c4ccccc34)c3ncn(C(C)C)c3n2)c1", "699152-130-R-J1-PDC complex spheroid growth", "%", 16.3],
  ["O=C(C=Cc1cccc(S(=O)(=O)Nc2ccccc2)c1)NO + Cc1ccccc1N=Nc1ccc(NC(=O)c2ccnn2C)c(C)c1", "699152-130-R-J1-PDC complex spheroid growth", "%", 97],
  ["COc1ccc([C@@H](O)c2cc(-c3ncnc4cc(N5CCOCC5)ccc34)c(F)cc2Cl)nn1 + Cc1cncc(-c2nc(NCCc3c[nH]c4ccccc34)c3ncn(C(C)C)c3n2)c1", "699152-130-R-J1-PDC complex spheroid growth", "%", 6.8],
  ["COc1cc(Nc2ncc3c(n2)-c2ccc(Cl)cc2C(c2c(F)cccc2OC)=NC3)ccc1C(=O)O + Cc1ccccc1N=Nc1ccc(NC(=O)c2ccnn2C)c(C)c1", "699152-130-R-J1-PDC complex spheroid growth", "%", 66.8],
  ["CC1COCCN1c1cc(C2(S(C)(=N)=O)CC2)nc(-c2ccnc3[nH]ccc23)n1 (stereo not drawn) + Cc1ccccc1N=Nc1ccc(NC(=O)c2ccnn2C)c(C)c1", "699152-130-R-J1-PDC complex spheroid growth", "%", 94.8],
  ["COc1cc(C2c3cc4c(cc3C(OC3OC5COC(C)OC5C(O)C3O)C3COC(=O)C23)OCO4)cc(OC)c1O (stereo not drawn) + CC(CO)NC(=O)c1cc(-c2ccc(Cl)cc2)nn(-c2cnn(C)c2)c1=O", "699152-130-R-J1-PDC complex spheroid growth", "%", 57.1]
]}
